procedure-details: Inhibition of Leishmania donovani recombinant nucleoside hydrolase expressed in Escherichia coli DH5alpha coexpressing MBP using inosine as substrate by xanthine oxidase-coupled assay
pKi: −log10 of the molar value.
Each entry below lists one item and its recorded pKi value.
measured-attribute: pKi

[
  {
    "smiles-data": "O=C(O)c1cn([C@@H]2O[C@H](CO)[C@@H](O)[C@H]2O)c2ccc(Cl)cc2c1=O",
    "assay-value": 5.80
  },
  {
    "smiles-data": "O=C(O)c1cn([C@@H]2O[C@H](CO)[C@@H](O)[C@H]2O)c2ccc(F)cc2c1=O",
    "assay-value": 4.77
  }
]

###

procedure-details: Inhibition of Leishmania donovani recombinant nucleoside hydrolase expressed in Escherichia coli DH5alpha coexpressing MBP using inosine as substrate by xanthine oxidase-coupled assay
pIC50: −log10 of the molar value.
measured-attribute: pIC50

[
  {
    "smiles-data": "O=C(O)c1cn([C@@H]2O[C@H](CO)[C@@H](O)[C@H]2O)c2ccc(F)cc2c1=O",
    "measured-attribute": "pIC50",
    "assay-value": 4.54
  },
  {
    "smiles-data": "O=C(O)c1cn([C@@H]2O[C@H](CO)[C@@H](O)[C@H]2O)c2ccc(Cl)cc2c1=O",
    "measured-attribute": "pIC50",
    "assay-value": 5.58
  }
]
